meta.source: patent US12421254B2

Give measured IC50 for each item. Keep answers brief.
- EXPERIMENTAL_TARGET: GST-tagged KRAS-G12V (2-169) (Homo sapiens, UniProt P01116, G12V)
- Sequence (P01116 2-169 isoform P01116-2 G12V): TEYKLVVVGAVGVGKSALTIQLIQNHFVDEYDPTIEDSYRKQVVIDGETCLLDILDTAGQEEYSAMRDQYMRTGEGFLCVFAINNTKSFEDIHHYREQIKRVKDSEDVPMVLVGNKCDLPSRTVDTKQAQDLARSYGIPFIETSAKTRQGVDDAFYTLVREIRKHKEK
- RUN_DESCRIPTION: Nucleotide exchange assay (NEA), SOS-mediated, HTRF, KRAS G12V
- REPORTED_CONDITIONS: Table 4; IC50 extracted at 90 min; 80 nM SOS

Value lookup for IC50; key = CN(CC1(C#N)CC1)c1nc(OC[C@@]23CCCN2C[C@H](F)C3)nc(N2CC3(CCc4sc(N)c(C#N)c43)C2)n1 [Compound 15]
10 to 100 nM

Request the reported IC50 associated with CCN(c1nc(OCC23CCC(COC2)N3)nc(N2CC3(C2)SCc2sc(N)c(C#N)c23)n1)[C@H](C)c1cccnc1N (stereo partly shown) [Compound 204]
< 10 nM

Quick check: IC50 of CCN(c1nc(OCC2(COC)CCCN2)nc(N2CC3(C2)SCc2sc(N)c(C#N)c23)n1)[C@H](C)c1cccnc1N (stereo partly shown) [Compound 202] ?
< 10 nM

What value of measured IC50 is listed for CCN(c1nc(OC[C@@]23CCCN2C[C@H](F)C3)nc(N2CC3(C2)SCc2sc(N)c(C#N)c23)n1)[C@H](C)c1cccnc1N [Compound 139A] ?
< 10 nM

Any idea what IC50 was measured for CCN(CC1(C#N)CC1)c1nc(OC[C@@]23CCCN2C[C@H](F)C3)nc(N2CC3(C2)SCc2sc(N)c(C#N)c23)n1 [Compound 241] ?
< 10 nM

# IC50 lookup, item N#Cc1c(N)sc2c1C1(CC2)CN(c2nc(OC[C@@]34CCCN3C[C@H](F)C4)nc(N3CCCOC[C@H]3CO)n2)C1 [Compound 69]
10 to 100 nM

Param item = CC(c1cccnc1N)N(C)c1nc(OC[C@@]23CCCN2C[C@H](F)C3)nc(N2CC3(CCc4sc(N)c(C#N)c43)C2)n1 (stereo partly shown) [Compound 83] ; retrieve measured IC50.
< 10 nM

Suppose we examine the molecule CC1(C#N)CCCCN(c2nc(OC[C@@]34CCCN3C[C@H](F)C4)nc(N3CC4(CCc5sc(N)c(C#N)c54)C3)n2)C1 (stereo partly shown) [Compound 111] ; what IC50 value has been reported?
< 10 nM

Given N#Cc1c(N)sc2c1C1(CCC2)CN(c2nc(OCC3(CN4CCOCC4)CC3)nc(N3C[C@H]4CC[C@@H](C3)N4)n2)C1 [Compound 3] , state its recorded IC50.
100 to 1000 nM

Recorded IC50 of N#Cc1c(N)sc2c1C1(CC2)CN(c2nc(OC[C@@]34CCCN3C[C@H](F)C4)nc(N(CCO)Cc3c[nH]nc3Cl)n2)C1 [Compound 151] , please.
100 to 1000 nM

Give the measured IC50 of CC(c1cccnc1N)N(C)c1nc(OC[C@@]23CCCN2C[C@H](F)C3)nc(N2CC3(C2)SCc2sc(N)c(C#N)c23)n1 (stereo partly shown) [Compound 115] .
< 10 nM

// IC50 lookup, key: N#Cc1c(N)sc2c1C1(CN(c3nc(OC[C@@]45CCCN4C[C@H](F)C5)nc(Oc4cc[nH]n4)n3)C1)SC2 [Compound 165]
100 to 1000 nM

GET /values?readout=IC50&item= CCN(c1nc(OC[C@@]23CCCN2C[C@H](F)C3)nc(N2CC3(C2)SCc2sc(N)c(C#N)c23)n1)C(C)CC#N (stereo partly shown) [Compound 254]
< 10 nM

Which IC50 is listed for CC(C1=NN=CC1Cl)N(C)c1nc(OC[C@@]23CCCN2C[C@H](F)C3)nc(N2CC3(CCc4sc(N)c(C#N)c43)C2)n1 (stereo partly shown) [Compound 127] ?
100 to 1000 nM

Would you mind telling me what IC50 value was observed for C[C@@]1(O)CCCN(c2nc(OCC3(CN4CCOCC4)CC3)nc(N3CCC4(CCCc5sc(N)c(C#N)c54)C3)n2)C1 (stereo partly shown) [Compound 64] ?
1000 to 20000 nM

Returns the measured IC50 for the input molecule. Input: CC(c1cccnc1N)N(C)c1nc(OCC2(CN3CCOCC3)CC2)nc(N2CC3(C2)SCc2sc(N)c(C#N)c23)n1 (stereo not shown) [Compound 128]
< 10 nM

I am curious: what IC50 value has been reported for N#CCC1(O)CCCN(c2nc(OC[C@@]34CCCN3C[C@H](F)C4)nc(N3CC4(CCc5sc(N)c(C#N)c54)C3)n2)C1 (stereo partly shown) [Compound 79] ?
< 10 nM

Return reported IC50; argument: CC(c1nccnc1O)N(C)c1nc(OC[C@@]23CCCN2C[C@H](F)C3)nc(N2CC3(CCc4sc(N)c(C#N)c43)C2)n1 (stereo partly shown) [Compound 150]
100 to 1000 nM

I am curious: what IC50 value has been reported for CC(c1cn(C)nc1N)N(C)c1nc(OC[C@@]23CCCN2C[C@H](F)C3)nc(N2CC3(CCc4sc(N)c(C#N)c43)C2)n1 (stereo partly shown) [Compound 157] ?
10 to 100 nM

# query: IC50 of entry CCN(c1nc(OC[C@@]23CCCN2C[C@H](F)C3)nc(N2CC3(C2)SCc2sc(N)c(C#N)c23)n1)C(C)c1nccnc1N (single isomer, unassigned) [Compound 168A]
< 10 nM

Which IC50 value belongs to CC(O)CN(Cc1cccnc1N)c1nc(OC[C@@]23CCCN2C[C@H](F)C3)nc(N2CC3(CCc4sc(N)c(C#N)c43)C2)n1 (stereo partly shown) [Compound 141] ?
< 10 nM

Look up IC50 for this molecule: N#Cc1c(N)sc2c1C1(CN(c3nc(OC[C@@]45CCCN4C[C@H](F)C5)nc(N4[C@@H]5CC[C@H]4C[C@H](O)C5)n3)C1)SC2 [Compound 275]
100 to 1000 nM

Entry under review: CC1(O)COCCN(c2nc(OCC3(CN4CCOCC4)CC3)nc(N3CC4(C3)SCc3sc(N)c(C#N)c34)n2)C1 (stereo not shown) [Compound 270] . Reported IC50?
< 10 nM

Which IC50 value belongs to CC(=O)C(O)(O)C(=O)N1[C@@H]2CC[C@H]1CN(c1nc(OC[C@@]34CCCN3C[C@H](F)C4)nc(N3CC4(C3)SCc3sc(N)c(C#N)c34)n1)C2 [Compound 159] ?
100 to 1000 nM

Given the molecule CC1(CO)CCCN(c2nc(OC[C@@]34CCCN3C[C@H](F)C4)nc(N3CC4(CCc5sc(N)c(C#N)c54)C3)n2)C1 (stereo partly shown) [Compound 18] , what is its reported IC50?
10 to 100 nM

====

- EXPERIMENTAL_TARGET: GST-tagged KRAS-G12V (2-169) (Homo sapiens, UniProt P01116, G12V)
- RUN_DESCRIPTION: Nucleotide exchange assay (NEA), SOS-mediated, HTRF, KRAS G12V
- REPORTED_CONDITIONS: Table 4; IC50 extracted at 90 min; 80 nM SOS
pIC50: −log10 of the molar value.
Task for the reader: assign each of the following compounds its reported pIC50.

What pIC50 value was documented for this compound, CC(c1ccc(P(C)(C)=O)cc1N)N(C)c1nc(OC[C@@]23CCCN2C[C@H](F)C3)nc(N2CC3(C2)SCc2sc(N)c(C#N)c23)n1 (stereo partly drawn) ?
≤ 4.70

What does the record list as pIC50 for N#Cc1c(N)sc2c1C1(CC2)CN(c2nc(OC[C@@]34CCCN3C[C@H](F)C4)nc(N3C[C@H](O)C[C@@H](O)C3)n2)C1 ?
7.00 to 8.00

What value of measured pIC50 is listed for CCN(c1nc(OCC2(CN(C)C)CC2(F)F)nc(N2CC3(C2)SCc2sc(N)c(C#N)c23)n1)[C@H](C)c1cccnc1N (stereo partly drawn) ?
> 8.00

Query: pIC50; subject: CCN(c1nc(OC[C@@H]2CCCN2C)nc(N2CC3(C2)SCc2sc(N)c(C#N)c23)n1)[C@H](C)c1cccnc1N
> 8.00

Request the reported pIC50 associated with N#CCN(c1nc(OC[C@@]23CCCN2C[C@H](F)C3)nc(N2CC3(C2)SCc2sc(N)c(C#N)c23)n1)C1(C#N)CC1
> 8.00

Can you look up the measured pIC50 of C[C@@]1(O)C[C@@H](O)CN(c2nc(OC[C@@]34CCCN3C[C@H](F)C4)nc(N3CC4(CCc5sc(N)c(C#N)c54)C3)n2)C1 for me?
> 8.00

Give the measured pIC50 of C[C@H](c1cccnc1N)N(C)c1nc(OC[C@@]23CCCN2C[C@H](F)C3)nc(N2CCC3(CCCc4sc(N)c(C#N)c43)C2=O)n1 (single isomer, unassigned) [Compound 175A] .
> 8.00

Return reported pIC50; argument: COc1ccc(C(C)N(C)c2nc(OC[C@@]34CCCN3C[C@H](F)C4)nc(N3CC4(C3)SCc3sc(N)c(C#N)c34)n2)c(N)n1 (stereo partly drawn)
6.00 to 7.00

Give its pIC50 value. Item: N#CCC12CC1CCN(c1nc(OC[C@@]34CCCN3C[C@H](F)C4)nc(N3CC4(CCc5sc(N)c(C#N)c54)C3)n1)C2 (stereo partly drawn)
7.00 to 8.00

For the compound shown here, CN(c1nc(OC[C@@]23CCCN2C[C@H](F)C3)nc(N2CC3(CCc4sc(N)c(C#N)c43)C2)n1)[C@H]1COC[C@H]1O (racemic) , give the reported pIC50.
6.00 to 7.00

Return reported pIC50; argument: C[C@@]1(O)CCCN(c2nc(OC[C@@]34CCCN3C[C@H](F)C4)nc(N3CC4(C3)c3c(sc(N)c3C#N)CC3CC34)n2)C1 (stereo partly drawn)
7.00 to 8.00

For the compound N#Cc1c(N)sc2c1C1(CC2)CN(c2nc(OCC3(O)CC3)nc(OC[C@@]34CCCN3C[C@H](F)C4)n2)C1 , what pIC50 is on record?
6.00 to 7.00
